Numbers sourced from patent US8906925B2.

Below: a set of entries, each annotated with reported inhibition at 1 µM.
TARGET_OF_ASSAY: human recombinant histamine H2 receptor (Homo sapiens, UniProt P25021)
Construct: expressed in transfected cells; host or cells: Chinese hamster ovary (CHO) K1 cells
Sequence (P25021 whole entry): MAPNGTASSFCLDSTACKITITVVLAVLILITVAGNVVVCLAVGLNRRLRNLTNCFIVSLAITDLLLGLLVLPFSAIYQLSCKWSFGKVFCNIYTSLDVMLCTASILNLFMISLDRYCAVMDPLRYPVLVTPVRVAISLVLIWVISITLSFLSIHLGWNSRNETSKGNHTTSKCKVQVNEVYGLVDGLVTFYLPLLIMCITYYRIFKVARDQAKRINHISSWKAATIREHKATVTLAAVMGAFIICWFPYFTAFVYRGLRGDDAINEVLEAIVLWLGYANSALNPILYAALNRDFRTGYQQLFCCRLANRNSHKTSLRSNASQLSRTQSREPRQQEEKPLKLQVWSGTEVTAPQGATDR
PROCEDURE_DETAILS: Histamine H2 radioligand binding ([125I]Aminopotentidine)
CONDITION_NOTES: read-out: Histamine Binding (1 μM) H2, percent inhibition of specific binding, 1 μM

Cc1ccc2c(c1)c1c(n2CC(O)(c2ccccc2)c2ccc(F)cc2)CCN(C)C1 (stereo not shown) = 74%

**Query** Endpoint output: inhibition at 1 µM of CCC(O)(Cn1c2c(c3cc(C)ccc31)CN(C)CC2)c1ccc(F)cc1 (stereo not shown) . Value?
**Result** 91%

**Query** Endpoint output: inhibition at 1 µM of "C=C(Cn1c2c(c3cc(Cl)ccc31)CN(C)CC2)c1ccc(OC)c(F)c1" . Value?
**Result** 99%

**Query** Endpoint output: inhibition at 1 µM of "C/C(=C/n1c2c(c3cc(C)ccc31)CN(C)CC2)c1ccc(Cl)c(Cl)c1" . Value?
**Result** 99%

**Query** Endpoint output: inhibition at 1 µM of "CN1CCc2c(c3cc(Cl)ccc3n2C/C=C/c2ccc(F)cc2)C1" . Value?
**Result** 85%

**Query** Endpoint output: inhibition at 1 µM of COc1ccc2c(c1)c1c(n2CC(C)(O)c2ccncc2)CCN(C)C1 (stereo not shown) . Value?
**Result** 13%

**Query** Endpoint output: inhibition at 1 µM of "COc1ccc2c(c1)c1c(n2/C=C(/C)c2ccncc2)CCN(C)C1" . Value?
**Result** 28%

**Query** Endpoint output: inhibition at 1 µM of "C/C(=C\n1c2c(c3ccc(F)cc31)CN(C)CC2)c1ccc(F)cc1" . Value?
**Result** 101%

**Query** Endpoint output: inhibition at 1 µM of CCC(O)(Cn1c2c(c3cc(Cl)ccc31)CN(C)CC2)c1ccc(F)cc1 (stereo not shown) . Value?
**Result** 89%

**Query** Endpoint output: inhibition at 1 µM of "CCC/C=C(/Cn1c2c(c3cc(Cl)ccc31)CN(C)CC2)c1ccc(F)cc1" . Value?
**Result** 100%

**Query** Endpoint output: inhibition at 1 µM of "C/C(=C\n1c2c(c3cc(Cl)ccc31)CN(C)CC2)c1ccccc1Cl" . Value?
**Result** 93%

**Query** Endpoint output: inhibition at 1 µM of CCCCC(O)(Cn1c2c(c3cc(Cl)ccc31)CN(C)CC2)c1ccc(F)cc1 (stereo not shown) . Value?
**Result** 89%

**Query** Endpoint output: inhibition at 1 µM of "C/C(=C\n1c2c(c3cc(Cl)ccc31)CN(C)CC2)c1ccccc1" . Value?
**Result** 99%

**Query** Endpoint output: inhibition at 1 µM of "C/C(=C\n1c2c(c3cc(C)ccc31)CN(C)CC2)c1cc(F)c(F)cc1Cl" . Value?
**Result** 98%

**Query** Endpoint output: inhibition at 1 µM of CN1CCc2c(c3cc(Cl)ccc3n2CC(O)(c2ccc(F)cc2)C2CCC2)C1 (stereo not shown) . Value?
**Result** 101%

**Query** Endpoint output: inhibition at 1 µM of COc1ccc(C(C)(O)Cn2c3c(c4cc(C)ccc42)CN(C)CC3)cc1F (stereo not shown) . Value?
**Result** 78%

**Query** Endpoint output: inhibition at 1 µM of "C/C(=C\n1c2c(c3cc(Cl)ccc31)CN(C)CC2)c1ccc(C)nc1" . Value?
**Result** 91%

**Query** Endpoint output: inhibition at 1 µM of CN1CCc2c(c3cc(Cl)ccc3n2CC(O)(c2ccc(F)cc2)C2CC2)C1 (stereo not shown) . Value?
**Result** 99%

**Query** Endpoint output: inhibition at 1 µM of "C/C(=C\n1c2c(c3cc(Cl)ccc31)CN(C)CC2)c1ccc(Cl)cc1" . Value?
**Result** 100%

**Query** Endpoint output: inhibition at 1 µM of CN1CCc2c(c3cc(F)ccc3n2CC(C)(O)c2ccncc2)C1 (stereo not shown) . Value?
**Result** 25%

**Query** Endpoint output: inhibition at 1 µM of "COc1ccc(C#Cn2c3c(c4cc(C)ccc42)CN(C)CC3)cc1F" . Value?
**Result** 97%

**Query** Endpoint output: inhibition at 1 µM of "C/C(=C\n1c2c(c3cc(C)ccc31)CN(C)CC2)c1ccc(Cl)cc1" . Value?
**Result** 100%
